- Read-out: Interleukin-8 (IL8), CXCL8 (gene 3576)
- Assay info: BSK_3C_IL8: BioMAP Diversity Plus: 3C Assay for Interleukin-8 (IL8) Biomarker Activity (AID 2283020)
- Condition parameters: primary human endothelial cells (HUVEC); actives raise or lower the signal
Active and inactive are the calls of the source. Rule for the calls: active = hit-call score of the fitted dose curve at least 0.9, where 1 is the maximum; inactive = score below 0.9.
Test readout: outcome

CCC(C)OC(=O)N1CCCCC1CCO (stereo not drawn); inactive
COC(=O)CSc1cc(N=c2sc(=O)n3n2CCCC3)c(F)cc1Cl; inactive
O=C(c1ccccc1)C1CCCCC1; inactive

###

- Assay info: BSK_3C_uPAR: BioMAP Diversity Plus: 3C Assay for Urokinase-type plasminogen activator receptor (uPAR) Biomarker Activity (AID 2282998)
- Condition parameters: BioMAP 3C HUVEC, uPAR biomarker ELISA; actives raise or lower the signal
Activity calls are given as the source filed them. Rule for the calls: active = hit-call score of the fitted dose curve at least 0.9, where 1 is the maximum; inactive = score below 0.9.
Bench note: report the call from active, inactive

CCOC(=O)[C@H](C)Oc1ccc(Oc2nc3ccc(Cl)cc3o2)cc1; inactive
CC1(C)C(C=C(Cl)Cl)C1C(=O)OCc1cccc(Oc2ccccc2)c1 (stereo unspecified); inactive
CC(=O)S[C@@H]1CC2=CC(=O)CC[C@]2(C)[C@H]2CC[C@@]3(C)[C@@H](CC[C@@]34CCC(=O)O4)[C@H]12; active
COCCO; inactive
CCC(C)OC(=O)N1CCCCC1CCO (stereo unspecified); inactive

Input line: GET /call?item= c1ccc(Nc2ccccc2)cc1 returns the recorded outcome of this test.
Output line: inactive

Input line: For S=C([S-])NCCNC(=S)[S-].[Mn+2] , what call appears in the results of this test?
Output line: inactive

Input line: Dear all, I need the recorded test outcome for CCCCOCCOCCOCc1cc2c(cc1CCC)OCO2 , thank you.
Output line: inactive

Input line: Per the records of this test, what outcome belongs to S=C(S)NCCNC(=S)S.[Mn+2].[S-]C([S-])=NCCN=C([S-])[S-].[Zn+2] ?
Output line: inactive

Input line: Field: outcome | Entry: CCNc1nc(N)nc(Cl)n1
Output line: inactive

Input line: What call does the record list for CCOC(=O)C(C)Oc1ccc(Oc2nc3ccc(Cl)cc3o2)cc1 (stereo unspecified) ?
Output line: active

Input line: Give the logged outcome of this assay for the following compound: COC(=O)c1ccccc1S(=O)(=O)NC(=O)Nc1nc(OC(F)F)cc(OC(F)F)n1
Output line: inactive

Input line: Hey, what did the test say about COC(=O)c1cccc(C)c1S(=O)(=O)NC(=O)Nc1nc(OCC(F)(F)F)nc(N(C)C)n1 ?
Output line: inactive

Input line: Recorded call for C[C@]12C[C@H](O)[C@H]3[C@@H](CCC4=CC(=O)CC[C@@]43C)[C@@H]1CC[C@@H]2C(=O)CO ?
Output line: inactive

Input line: For Cc1nn(C)c(Oc2ccccc2)c1C=NOCc1ccc(C(=O)OC(C)(C)C)cc1 , what call appears in the results of this test?
Output line: active

Input line: Write down the call the test reported for this compound. Item: COC(=O)c1c(Cl)nn(C)c1S(=O)(=O)NC(=O)Nc1nc(OC)cc(OC)n1
Output line: inactive

Input line: Please share the test call associated with CCCCC(CC)COC(=O)c1ccccc1C(=O)O (stereo unspecified) .
Output line: inactive

###

- Assay info: ATG_M_06_CIS: Attagene CIS-FACTORIAL HepG2 Assay for M06 Transcription Factor (Internal Marker) (AID 2282950)
- Condition parameters: HepG2 Attagene CIS-FACTORIAL M06 internal marker reporter; actives raise or lower the signal
Activity calls are given as the source filed them. The calls were made as follows: active = hit-call score of the fitted dose curve at least 0.9, where 1 is the maximum; inactive = score below 0.9.
Test readout: outcome

CCCN(CCC)c1c([N+](=O)[O-])cc(C(F)(F)F)c(N)c1[N+](=O)[O-]; inactive
CCC(C)OC(=O)N1CCCCC1CCO (stereo not drawn); inactive
CN(C)C(=O)Nc1ccc(Cl)c(Cl)c1; inactive

Where these numbers come from: PubChem BioAssay (EPA / NIEHS)
